System: B16-F10
Test: Cytotoxicity against mouse B16F10 cells
Format: functional, cell-based
Listed below: pIC50 values for each entry.
Please note pIC50 is a logarithmic value: minus log10 of concentration in mol/L. Answer with that number alone.

Guide cases for pIC50, answers given:
INSERT INTO assay_data (molecule, measurement) VALUES
  ('CCCCCCCCCCOC(=O)c1cc(O)c(O)c(O)c1 [DECYL GALLATE]', 4.09),
  ('CCCCCCCCOC(=O)c1cc(O)c(O)c(O)c1 [OCTYL_GALLATE]', 4.35),
  ('CCCCCCCCCCCCCCOC(=O)c1cc(O)c(O)c(O)c1 [TETRADECYL GALLATE]', 4.22);

Here is the next item to consider.
The molecule CCCCCCCCCCCCOC(=O)c1cc(O)c(O)c(O)c1 [DODECYL GALLATE] , tested on B16-F10, showed pIC50 of 4.32
